Molecular target: POU1 (OCT1 POU domain);BOB1 (OBF1, OCA-B) (human;human, UniProt P14859;Q16633 260-458;1-256, |)
Sequence (P14859 260-458, chain 1 of 2): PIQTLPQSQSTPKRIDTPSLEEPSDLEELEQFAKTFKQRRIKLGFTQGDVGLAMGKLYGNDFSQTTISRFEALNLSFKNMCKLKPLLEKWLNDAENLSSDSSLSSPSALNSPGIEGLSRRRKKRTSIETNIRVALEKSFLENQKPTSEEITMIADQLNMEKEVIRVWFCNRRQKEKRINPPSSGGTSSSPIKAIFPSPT
Sequence (Q16633 whole entry, chain 2 of 2, the tested form may be a part): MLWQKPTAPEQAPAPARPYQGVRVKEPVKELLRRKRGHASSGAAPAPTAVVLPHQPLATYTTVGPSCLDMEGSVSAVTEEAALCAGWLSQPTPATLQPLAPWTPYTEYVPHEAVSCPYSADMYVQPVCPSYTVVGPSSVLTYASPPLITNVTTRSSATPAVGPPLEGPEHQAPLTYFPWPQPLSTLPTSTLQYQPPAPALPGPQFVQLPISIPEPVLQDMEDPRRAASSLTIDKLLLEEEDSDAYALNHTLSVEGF
Assay: EMSA-SELEX-seq; with BOB1 (ternary complex band); 20 mM Tris-HCl pH 7.6, 140 mM NaCl, 10% glycerol, 0.5 mM EDTA, 0.05% Triton X-100, 0.1 mg/mL BSA, 0.1 mg/mL poly(dI-dC), 5 mM DTT, room temperature, 20 min; high values mean tight binding
Settings: protein: recombinant;recombinant; copies: 1;1; dsDNA, one strand shown
Kindly state binding signal for each of the entries shown.

Input: Name the recorded binding signal for ATGGCAAC .
Output: 0.0297 % of ANNNNAAN 8-mers

Input: binding signal for ACGAAAAT ?
Output: 0.139 % of ANNNNAAN 8-mers

Input: Requested read-out: binding signal. Entry: AATCAAAA
Output: 0.142 % of ANNNNAAN 8-mers

Input: Which binding signal value belongs to ATATCAAA ?
Output: 0.0823 % of ANNNNAAN 8-mers

Input: Name the recorded binding signal for AGGCAAAT .
Output: 2.22 % of ANNNNAAN 8-mers

Input: Return reported binding signal; argument: ACGCGAAC
Output: 0.0109 % of ANNNNAAN 8-mers

Input: Tell me the measured binding signal of AGAGTAAA , please.
Output: 0.0605 % of ANNNNAAN 8-mers

Input: I'd like to know its binding signal. The sequence in question is AAGACAAG
Output: 0.0261 % of ANNNNAAN 8-mers
